Entry source: patent US8716284B2

Biological target: rat metabotropic glutamate receptor 5 (mGluR5) (Rattus norvegicus, UniProt P31424)
Construct: expressed in transfected cells; host or cells: HEK 293
Sequence (P31424 21-1171 isoform P31424-2 limits assumed): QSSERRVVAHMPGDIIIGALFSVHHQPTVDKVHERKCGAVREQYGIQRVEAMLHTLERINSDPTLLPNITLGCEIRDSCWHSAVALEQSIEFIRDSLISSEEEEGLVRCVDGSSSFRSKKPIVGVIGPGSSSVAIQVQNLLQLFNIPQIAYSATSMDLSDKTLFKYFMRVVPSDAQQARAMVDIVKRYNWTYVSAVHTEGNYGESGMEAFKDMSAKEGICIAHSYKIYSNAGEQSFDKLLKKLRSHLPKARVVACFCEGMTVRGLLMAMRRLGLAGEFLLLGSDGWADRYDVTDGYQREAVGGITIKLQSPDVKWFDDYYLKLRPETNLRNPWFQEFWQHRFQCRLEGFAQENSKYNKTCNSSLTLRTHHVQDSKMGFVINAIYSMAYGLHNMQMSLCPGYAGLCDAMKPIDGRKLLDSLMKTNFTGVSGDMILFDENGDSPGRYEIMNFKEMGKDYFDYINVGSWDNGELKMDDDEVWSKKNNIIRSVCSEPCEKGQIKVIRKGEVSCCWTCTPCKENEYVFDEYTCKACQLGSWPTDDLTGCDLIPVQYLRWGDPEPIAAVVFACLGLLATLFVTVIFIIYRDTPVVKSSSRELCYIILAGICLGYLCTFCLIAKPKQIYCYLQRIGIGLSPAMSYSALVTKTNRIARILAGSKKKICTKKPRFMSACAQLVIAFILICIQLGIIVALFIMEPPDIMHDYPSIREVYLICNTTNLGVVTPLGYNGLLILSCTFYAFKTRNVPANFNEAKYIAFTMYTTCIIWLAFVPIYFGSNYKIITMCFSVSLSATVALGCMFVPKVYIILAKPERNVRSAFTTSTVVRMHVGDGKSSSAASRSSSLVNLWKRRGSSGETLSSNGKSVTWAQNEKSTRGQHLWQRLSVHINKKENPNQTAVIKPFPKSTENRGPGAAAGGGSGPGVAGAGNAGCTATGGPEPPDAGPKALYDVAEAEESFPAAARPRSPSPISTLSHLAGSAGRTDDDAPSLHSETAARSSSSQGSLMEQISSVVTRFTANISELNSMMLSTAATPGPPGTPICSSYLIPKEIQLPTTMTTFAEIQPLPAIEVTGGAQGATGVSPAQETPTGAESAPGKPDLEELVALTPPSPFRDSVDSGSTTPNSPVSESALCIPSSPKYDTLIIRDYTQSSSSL
Test: Calcium mobilization assay (FLIPR) for negative or positive allosteric activity, HEK 293 cells
Type: cell-based
Conditions: HEK293, negative allosteric modulation, inhibition of EC80 glutamate response; read-out: FLIPR maximum inhibition
measured-metric: Emax

QUERY: Look up Emax: Cc1cccc(C(=O)NC23CC4CC(CC(NC(=O)c5ccc6c(c5)OCCO6)(C4)C2)C3)n1 [Example 124]
RESULT: 70 to 99%

QUERY: Proceed to O=C(NC12CC3CC(C1)CC(NC(=O)c1cccc(N4CCC[C@@H]4CO)n1)(C3)C2)c1cccc(F)c1 [Example 250]
RESULT: 63 to 99%

QUERY: Proceed to Cc1cccc(C(=O)NC23CC4CC(C2)CC(NC(=O)c2cccc(N(C)CCCN(C)C)n2)(C4)C3)n1 [Example 233]
RESULT: 63 to 99%

QUERY: Proceed to Cc1cccc(C(=O)NC23CC4CC(C2)CC(NC(=O)c2cccc(F)n2)(C4)C3)n1 [Example 135]
RESULT: 70 to 99%
